Just for reference, ChEMBL document CHEMBL5500382 is where these values come from.

# target_of_assay: Ubiquitin carboxyl-terminal hydrolase 10 (Homo sapiens, UniProt Q14694)
# Sequence (Q14694 whole entry): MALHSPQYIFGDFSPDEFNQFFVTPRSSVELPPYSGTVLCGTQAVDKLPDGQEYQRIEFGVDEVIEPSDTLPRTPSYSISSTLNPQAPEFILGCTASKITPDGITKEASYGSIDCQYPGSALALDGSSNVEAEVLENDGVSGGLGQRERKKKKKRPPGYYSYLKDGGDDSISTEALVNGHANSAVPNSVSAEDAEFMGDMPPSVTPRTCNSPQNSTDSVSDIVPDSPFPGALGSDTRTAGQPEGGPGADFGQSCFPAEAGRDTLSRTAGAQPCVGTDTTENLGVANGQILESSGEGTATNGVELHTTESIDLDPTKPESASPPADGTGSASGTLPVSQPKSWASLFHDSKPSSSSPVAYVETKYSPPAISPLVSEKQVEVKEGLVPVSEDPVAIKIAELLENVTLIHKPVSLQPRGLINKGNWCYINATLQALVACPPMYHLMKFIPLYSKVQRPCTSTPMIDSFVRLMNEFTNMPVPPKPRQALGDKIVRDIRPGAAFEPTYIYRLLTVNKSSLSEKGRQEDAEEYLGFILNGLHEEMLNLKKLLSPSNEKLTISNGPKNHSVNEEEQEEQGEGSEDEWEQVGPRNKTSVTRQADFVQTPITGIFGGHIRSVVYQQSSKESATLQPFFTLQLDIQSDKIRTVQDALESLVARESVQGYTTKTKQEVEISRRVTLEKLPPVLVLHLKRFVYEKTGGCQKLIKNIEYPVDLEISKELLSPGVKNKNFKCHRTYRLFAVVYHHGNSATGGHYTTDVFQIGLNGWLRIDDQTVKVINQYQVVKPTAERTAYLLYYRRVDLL
# assay_protocol: Inhibition of human USP10 deubiquitinase activity using Ubiquitin 7-amino-4-carbamoylmethylcoumarin as substrate preincubated for 30 mins followed by substrate addition and measured after 30 mins by fluorometric assay
measured_parameter: pIC50
Numbers only, as −log10 of the molar value.

Below are worked cases with known answers.
INPUT: For the molecule Cc1ccc2c(=O)c(-c3nnc(Cc4ccccc4)o3)cn(CC(=O)NCCc3ccc(Cl)cc3)c2c1 , what pIC50 is on record?
OUTPUT: 5.05

INPUT: GET /values?readout=pIC50&item= Cc1ccc2c(=O)c(-c3nc(-c4ccccc4C)no3)cn(CC(=O)NC3CCN(c4ccc(Cl)cc4)CC3)c2c1
OUTPUT: 5.04

INPUT: I would be grateful if you could share the reported pIC50 for C[C@H](NC(=O)c1cn(CC(=O)NCCc2ccc(Cl)cc2)c2cc(F)ccc2c1=O)c1ccccc1 .
OUTPUT: 4.92

Each molecule below has a reported value. Please supply its pIC50.
1. Cc1ccccc1NC(=O)c1cn(CC(=O)NCCc2ccc(Cl)cc2)c2cc(N3CCOCC3)ccc2c1=O
2. COc1ccc([C@H](C)NC(=O)c2cn(CC(=O)NCCc3ccc(Cl)cc3)c3cc(C)ccc3c2=O)cc1
3. Cc1ccc2c(=O)c(C(=O)Nc3ccccc3C)cn(CC(=O)NCCc3ccc(Cl)cc3)c2n1

OUTPUT:
5.08
4.67
5.02
